- Tested on: VchCAST RNA-guided transposition machinery (E. coli BL21(DE3) host, lacZ target)
- measurement-notes: relative integration efficiency (T-RL orientation) vs wild-type transposon end (log2 (normalized fold change)); transposon end mutated: right end (5 bp flank + 75 bp right end); higher = more efficient transposition
Class fulfilled: relative integration efficiency (log2) at least -1. Class not fulfilled: relative integration efficiency (log2) below -1.

- biopolymer-sequence: "ACATTTGTTGATACAACCATAAAATGATAATTACACCCATAAATTGATAATTATCACACCCATAAATTGATATTGCCTCTCAACCATAAAATGATAATTAGATCATAGTCAGACCAAGCACCGACAC"
  discrete-label: "fulfilled"
- biopolymer-sequence: "ACATTTGTTGATACAACCATAAAATGATAATTACACCCATAAATTCATCATTATCACCCCCAATTTAACTATAACGCTCTGATCATAGTCAGACCAACATTGCTACGACCCGTATTCGCACCGACAC"
  discrete-label: "not fulfilled"
- biopolymer-sequence: "TGTAATGTTGATACAACCATAAAATGATAATTACACCCATAAATTGATAATTATCACACCCATAAATTGATATTGCCTCTGATCATAGTCAGACCAACATTGCTACGACCCGTATTCGCACCGACAC"
  discrete-label: "fulfilled"
- biopolymer-sequence: "ACATTTGTTGATACAACCATAAAATGATAATTACACCCATAAAGGTCTAATTATCACACCCATAAATTGATATTGCCTCTGATCATAGTCAGACCAACATTGCTACGACCCGTATTCGCACCGACAC"
  discrete-label: "not fulfilled"

====

Here the recorded relative integration efficiency (log2) is given for each entry.
- System: VchCAST RNA-guided transposition machinery (E. coli BL21(DE3) host, lacZ target)
- measurement-notes: relative integration efficiency (T-LR orientation) vs wild-type transposon end (log2 (normalized fold change)); transposon end mutated: right end (5 bp flank + 75 bp right end); higher = more efficient transposition

- biopolymer-sequence: "ACATTTGTTGATCCAACCATAAAATGATAATTACACCCATAAATGGATCATTATCACACCCAATTTAACTATAACGCTCTGATCATAGTCAGACCAACATTGCTACGACCCGTATTCGCACCGACAC"
  target-or-system: "VchCAST RNA-guided transposition machinery (E. coli BL21(DE3) host, lacZ target)"
  readout-relation: "="
  relative integration efficiency (log2): 1.13
- biopolymer-sequence: "ACATTTGTTGATACAACCATATATTGATATCTCCAACCATAAAATGATAATTATCACAACCATATATTGATATCTCCTCTGATCATAGTCAGACCAACATTGCTACGACCCGTATTCGCACCGACAC"
  target-or-system: "VchCAST RNA-guided transposition machinery (E. coli BL21(DE3) host, lacZ target)"
  readout-relation: "="
  relative integration efficiency (log2): -0.283
- biopolymer-sequence: "ACATTTGTTGATACACCCATAAATTGATATTGCCACCCATAAATTGATATTGCTCACAACCATAAAATGATAATTACTCTGATCATAGTCAGACCAACATTGCTACGACCCGTATTCGCACCGACAC"
  target-or-system: "VchCAST RNA-guided transposition machinery (E. coli BL21(DE3) host, lacZ target)"
  readout-relation: "="
  relative integration efficiency (log2): -0.156
- biopolymer-sequence: "ACATTTGTTGATACAACCATAAAATGATAAGGCACAAACGCCCGGTCGCCGGCGACACAAACGCCCGGTCGCGGTAAGAGGATCATAGTCAGACCAACATTGCTACGACCCGTATTCGCACCGACAC"
  target-or-system: "VchCAST RNA-guided transposition machinery (E. coli BL21(DE3) host, lacZ target)"
  readout-relation: "="
  relative integration efficiency (log2): 1.23
- biopolymer-sequence: "ACATTTGTTGATACAACCATAAAATGATAATTACACCCATAAATTGATAATTATCACACCCATCCCGGTCGCGGTAAGAGGATCATAGTCAGACCAACATTGCTACGACCCGTATTCGCACCGACAC"
  target-or-system: "VchCAST RNA-guided transposition machinery (E. coli BL21(DE3) host, lacZ target)"
  readout-relation: "="
  relative integration efficiency (log2): 2.36
- biopolymer-sequence: "ACATTTGTTGATACAACCATAAAATGATAATTACACCACGCAATTGATAATTATCACACCCATAAATTGATATTGCCTCTGATCATAGTCAGACCAACATTGCTACGACCCGTATTCGCACCGACAC"
  target-or-system: "VchCAST RNA-guided transposition machinery (E. coli BL21(DE3) host, lacZ target)"
  readout-relation: "="
  relative integration efficiency (log2): -2.53
- biopolymer-sequence: "ACATTTGTTGATACAACCATAAAATGATCATTACCCCCATAAATTGATAATTATCCCACCCAATTTAACTATAACGCTCTGATCATAGTCAGACCAACATTGCTACGACCCGTATTCGCACCGACAC"
  target-or-system: "VchCAST RNA-guided transposition machinery (E. coli BL21(DE3) host, lacZ target)"
  readout-relation: "="
  relative integration efficiency (log2): 1.58
- biopolymer-sequence: "ACCGGGGTTGATACAACCATAAAATGATAATTACACCCATAAATTGATAATTATCACACCCATAAATTGATATTGCCTCTGATCATAGTCAGACCAACATTGCTACGACCCGTATTCGCACCGACAC"
  target-or-system: "VchCAST RNA-guided transposition machinery (E. coli BL21(DE3) host, lacZ target)"
  readout-relation: "="
  relative integration efficiency (log2): -5.64
- biopolymer-sequence: "ACATTTCTCGATACAACCATAAAATGATAATTACACCCATAAATTGATCATTATCACACCCAATTTAACTATAACGCTCTGATCATAGTCAGACCAACATTGCTACGACCCGTATTCGCACCGACAC"
  target-or-system: "VchCAST RNA-guided transposition machinery (E. coli BL21(DE3) host, lacZ target)"
  readout-relation: "="
  relative integration efficiency (log2): 1.36
- biopolymer-sequence: "ACATTTGTTGATACAACCATTAAATGATAATTACACCCATATATTGATAATTATCACACCCAATTTAACTATAACGCTCTGATCATAGTCAGACCAACATTGCTACGACCCGTATTCGCACCGACAC"
  target-or-system: "VchCAST RNA-guided transposition machinery (E. coli BL21(DE3) host, lacZ target)"
  readout-relation: "="
  relative integration efficiency (log2): 2.04
- biopolymer-sequence: "ACATTTTGTGATACAACCATAAAATGATAATTACACCCATAAATTGATAATTATCACACCCATAAATTGATATTGCCTCTGATCATAGTCAGACCAACATTGCTACGACCCGTATTCGCACCGACAC"
  target-or-system: "VchCAST RNA-guided transposition machinery (E. coli BL21(DE3) host, lacZ target)"
  readout-relation: "<"
  relative integration efficiency (log2): -10
- biopolymer-sequence: "ACATTTGTTGATCCAACCATAAAATGATAATTACACCCATAAATTGATCATTATCACACCCAATTTAACTATAACGCTCTGATCATAGTCAGACCAACATTGCTACGACCCGTATTCGCACCGACAC"
  target-or-system: "VchCAST RNA-guided transposition machinery (E. coli BL21(DE3) host, lacZ target)"
  readout-relation: "="
  relative integration efficiency (log2): 1.98
- biopolymer-sequence: "ACATTTGTTGATACAACCATAAAATCATCATTACACCCATAAATTGATAATTATCCCACCCAATTTAACTATAACGCTCTGATCATAGTCAGACCAACATTGCTACGACCCGTATTCGCACCGACAC"
  target-or-system: "VchCAST RNA-guided transposition machinery (E. coli BL21(DE3) host, lacZ target)"
  readout-relation: "="
  relative integration efficiency (log2): 0.728
- biopolymer-sequence: "ACATTTGTTGATACAACCATAAAGTGATATTTACAACCATAAAGTGATATTTATCACAACCATAAAATGATAATTACTCTGATCATAGTCAGACCAACATTGCTACGACCCGTATTCGCACCGACAC"
  target-or-system: "VchCAST RNA-guided transposition machinery (E. coli BL21(DE3) host, lacZ target)"
  readout-relation: "="
  relative integration efficiency (log2): 0.11
- biopolymer-sequence: "ACATTTGTTGATACAACCATAAACGTCTAATTACACCCATAAATTGATAATTATCACACCCATAAATTGATATTGCCTCTGATCATAGTCAGACCAACATTGCTACGACCCGTATTCGCACCGACAC"
  target-or-system: "VchCAST RNA-guided transposition machinery (E. coli BL21(DE3) host, lacZ target)"
  readout-relation: "="
  relative integration efficiency (log2): -2.25
- biopolymer-sequence: "ACATTTGTTGATACAACCATAAAATGATAATTACCAAAATAAATTGATAATTATCACACCCATAAATTGATATTGCCTCTGATCATAGTCAGACCAACATTGCTACGACCCGTATTCGCACCGACAC"
  target-or-system: "VchCAST RNA-guided transposition machinery (E. coli BL21(DE3) host, lacZ target)"
  readout-relation: "="
  relative integration efficiency (log2): -1.47
- biopolymer-sequence: "ACATTTGTTGATACAACCCTAAAATGATAATTACACCCATAAATGGATAATTATCACACCCAATTTAACTATAACGCTCTGATCATAGTCAGACCAACATTGCTACGACCCGTATTCGCACCGACAC"
  target-or-system: "VchCAST RNA-guided transposition machinery (E. coli BL21(DE3) host, lacZ target)"
  readout-relation: "="
  relative integration efficiency (log2): -0.403
- biopolymer-sequence: "ACATTTGTTGATACAACCATAAAATGATAATTACACCCATAAATTGATAATTATCACACCCATAAATTGATATTGCTTATGATCATAGTCAGACCAACATTGCTACGACCCGTATTCGCACCGACAC"
  target-or-system: "VchCAST RNA-guided transposition machinery (E. coli BL21(DE3) host, lacZ target)"
  readout-relation: "="
  relative integration efficiency (log2): -0.462
- biopolymer-sequence: "ACATTTGTTGATACAACCATAAGTTGATATTTTCAACCATAAAGTGATATTTATCACAACCATATATTGATATCTCCTCTGATCATAGTCAGACCAACATTGCTACGACCCGTATTCGCACCGACAC"
  target-or-system: "VchCAST RNA-guided transposition machinery (E. coli BL21(DE3) host, lacZ target)"
  readout-relation: "="
  relative integration efficiency (log2): -0.347
- biopolymer-sequence: "ACATTTGTCGATACAACCATAAAATGATAATTACCACCCATACATTGATAATTATCACACCCATTTAACTATAACGCTCTGATCATAGTCAGACCAACATTGCTACGACCCGTATTCGCACCGACAC"
  target-or-system: "VchCAST RNA-guided transposition machinery (E. coli BL21(DE3) host, lacZ target)"
  readout-relation: "="
  relative integration efficiency (log2): 0.0639

Data provenance is the supplement of paper PMC10201428.
